B1: Lysine-specific demethylase 5C, residues 319 to 373; numbered along this chain, P41229 (parent)
chain: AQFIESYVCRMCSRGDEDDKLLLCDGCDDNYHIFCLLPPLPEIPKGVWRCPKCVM

Variants of: B1
Test: abundance fitness (aPCA) (normalised: wild type 0, dead -1); higher = more abundant; growth selection in yeast, the domain comes from the species named
Conditions: Homo sapiens
Outcome: yes for abundance fitness of at least -0.06; no for anything lower.

A selection of reference data follows.
A1E
no
E5L
no
F3W
no
D19F
no
K20N
no

Could you please find out whether "I4Q" has abundance fitness that meets -0.06 or exceeds it?
yes

Could you please find out whether "M11R" has abundance fitness that meets -0.06 or exceeds it?
yes

Could you please find out whether "G26F" has abundance fitness that meets -0.06 or exceeds it?
yes

Could you please find out whether "G15F" has abundance fitness that meets -0.06 or exceeds it?
yes

Could you please find out whether "V8F" has abundance fitness that meets -0.06 or exceeds it?
no

Could you please find out whether "F34D" has abundance fitness that meets -0.06 or exceeds it?
no

Could you please find out whether "E5W" has abundance fitness that meets -0.06 or exceeds it?
no

Could you please find out whether "Y7P" has abundance fitness that meets -0.06 or exceeds it?
no

Could you please find out whether "I4E" has abundance fitness that meets -0.06 or exceeds it?
no

Could you please find out whether "D25F" has abundance fitness that meets -0.06 or exceeds it?
no

Could you please find out whether "D25V" has abundance fitness that meets -0.06 or exceeds it?
yes

Could you please find out whether "I4K" has abundance fitness that meets -0.06 or exceeds it?
yes

Could you please find out whether "M11H" has abundance fitness that meets -0.06 or exceeds it?
no

Source listed as the Human Domainome abundance scans (Beltran et al. 2025).
